Target: T1, rHuman EGF R/Fc Chimera, CF (R&D Systems Cat#344-ER) (human, UniProt P00533 25-645)
T1 construct: Bought protein; also called epidermal growth factor receptor; Fc part of the bought chimera not given
Experiment: ECL multispot (MSD) assay; antigen spotted on plate, Fab in solution;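 also: purified Fab incubated 1 hour at 20 °C in 1% BSA TBST on antigen-coated wells, detected with TAG antibody, ECL read on Sector Imager 2400, compared to each well's blank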
Listed binders paired with reported ECL signal

Binder: Fab VH1-46_IGHD6-6*01_IGHJ1*01 S102A/S103P/S104F (APF) & L6_IGKJ1*01 S30W (Fab, V domains shown, Tested as Fab made in E. coli; The heavy chain vector (Plasmid A) adds CH1 with His and Flag tags, the kappa vector (Plasmid C) adds CL kappa; also called APF / S30W) VH: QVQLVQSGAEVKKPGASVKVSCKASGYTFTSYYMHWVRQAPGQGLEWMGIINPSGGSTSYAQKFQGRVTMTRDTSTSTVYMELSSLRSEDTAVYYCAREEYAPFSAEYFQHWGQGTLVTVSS VL: EIVLTQSPATLSLSPGERATLSCRASQSVWSYLAWYQQKPGQAPRLLIYDASNRATGIPARFSGSGSGTDFTLTISSLEPEDFAVYYCQQRSNWPPWTFGQGTKVEIKR
ECL signal / ECL signal: 132

Binder: Fab VH1-46_IGHD6-6*01_IGHJ1*01 S102A/S103P/S104F (APF) & L6_IGKJ1*01 S30L (Fab, V domains shown, Tested as Fab made in E. coli; The heavy chain vector (Plasmid A) adds CH1 with His and Flag tags, the kappa vector (Plasmid C) adds CL kappa; also called APF / S30L) VH: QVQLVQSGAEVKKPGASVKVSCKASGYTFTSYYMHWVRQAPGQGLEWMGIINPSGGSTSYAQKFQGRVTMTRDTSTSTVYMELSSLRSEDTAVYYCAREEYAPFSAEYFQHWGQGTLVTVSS VL: EIVLTQSPATLSLSPGERATLSCRASQSVLSYLAWYQQKPGQAPRLLIYDASNRATGIPARFSGSGSGTDFTLTISSLEPEDFAVYYCQQRSNWPPWTFGQGTKVEIKR
ECL signal / ECL signal: 288

Binder: Fab VH1-46_IGHD6-6*01_IGHJ1*01 S102A/S103P/S104F (APF) & L6_IGKJ1*01 S30R (Fab, V domains shown, Tested as Fab made in E. coli; The heavy chain vector (Plasmid A) adds CH1 with His and Flag tags, the kappa vector (Plasmid C) adds CL kappa; also called APF / S30R) VH: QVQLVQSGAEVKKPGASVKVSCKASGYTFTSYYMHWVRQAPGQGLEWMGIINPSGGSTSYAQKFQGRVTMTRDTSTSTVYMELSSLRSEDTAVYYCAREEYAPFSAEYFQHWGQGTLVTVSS VL: EIVLTQSPATLSLSPGERATLSCRASQSVRSYLAWYQQKPGQAPRLLIYDASNRATGIPARFSGSGSGTDFTLTISSLEPEDFAVYYCQQRSNWPPWTFGQGTKVEIKR
ECL signal / ECL signal: 140
